Biological target: High affinity 3',5'-cyclic-AMP phosphodiesterase 7A (Homo sapiens, UniProt Q13946)
Sequence (Q13946 whole entry): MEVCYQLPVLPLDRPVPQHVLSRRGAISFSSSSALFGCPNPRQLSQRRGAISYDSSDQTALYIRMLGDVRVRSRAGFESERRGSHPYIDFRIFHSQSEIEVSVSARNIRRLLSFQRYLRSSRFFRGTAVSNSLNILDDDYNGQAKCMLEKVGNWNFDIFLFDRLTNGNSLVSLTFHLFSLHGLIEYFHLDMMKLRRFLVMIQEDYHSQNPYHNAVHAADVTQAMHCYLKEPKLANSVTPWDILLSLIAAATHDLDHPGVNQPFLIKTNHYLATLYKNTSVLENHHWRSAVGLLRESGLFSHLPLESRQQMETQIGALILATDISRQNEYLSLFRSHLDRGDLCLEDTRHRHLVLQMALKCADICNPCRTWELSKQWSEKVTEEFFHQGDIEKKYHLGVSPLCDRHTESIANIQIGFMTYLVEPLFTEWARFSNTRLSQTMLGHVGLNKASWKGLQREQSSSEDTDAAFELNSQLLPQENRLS
Assay: Inhibition Assay: The PDE 7 (phosphodiesterase VII) inhibiting effect of the compounds of the present invention was performed by the following method, which was modified assay method described in Biochemical. Pharmacol. 48(6), 1219-1223 (1994). (1) The active fraction of PDE 7 (phosphodiesterase VII) was obtained. That is, MOLT-4 (obtainable from ATCC as ATCC No. CRL-1582), which was cell line of human acute lymphoblastic […] T cells, was incubated in RPMI1640 culture medium containing 10% fetal bovine serum to obtain 5x10^8 MOLT-4 cells. The cells were collected by centrifugation and suspended with 10 mL of buffer solution A [25 mM of tris-HCl, 5 mM of 2-mercaptoethnol, 2 mM of benzamidine, 2 mM of EDTA, 0.1 mM of 4-(2-aminoethyl)benzensulfonyl hydrochloride; pH 7.5], then homogenized by Polytron homogenizer. The homogenate were centrifuged under 25,000xG for 10 minutes at 4 C. The supernatant was separated and thus obtained supernatant was further centrifuged under 100,000xG for 60 minutes.
quantity.measured: IC50 (µM)
Answers are plain numbers, in µM.

[[record]]
molecule = "Cc1nn(C2CCCCC2)c2sc(C(=O)NC3CC[C@@H](C(=O)N(C)C)C3)cc12 (stereo partly specified)"
obs_value = 0.013

[[record]]
molecule = "Cc1nn(C2CCCCC2)c2sc(C(=O)Nc3ccc(N4CCN(C)CC4)c(Cl)c3)cc12"
obs_value = 0.055

[[record]]
molecule = "Cc1nn(C2CCCCC2)c2sc(C(=O)Nc3ccc(N4CCOCC4)cc3)cc12"
obs_value = 0.034

[[record]]
molecule = "COc1cc(NC(=O)c2cc3c(C)nn(C4CCCCC4)c3s2)ccc1C(=O)N1CCC(O)CC1"
obs_value = 0.065


For each of the items listed, what is its IC50?
1. COc1cc(NC(=O)c2cc3c(C)nn(C4CCCCC4)c3s2)ccc1C(=O)N1CCN(C)CC1
2. Cc1nn(C2CCOCC2)c2sc(C(=O)N[C@H]3CC[C@H](N4CCOCC4)CC3)cc12

[0.085, 0.024]

// data source = ChEMBL document CHEMBL3638901
